Hey, just so you know, these numbers are from PubChem BioAssay (NCI).

# Test system: HCT-116 colon
# run.description: NCI-60 one-dose screen, 48 h (100 = growth as untreated, 0 = no growth, -100 = all killed)
# conditions.used: 10 µM
Compounds without any hit were thinned out: in the full panel of roughly 83,000, 20% have a hit.
metric.name: growth (%)
// return numeric value only (unit: %, not printed)

The value of growth measured for the compound O=C1C(c2ccccc2)C2C=CC(C2)N1O (configuration not stated) turned out to be 104

The value of growth measured for the compound COc1ccc(N2C(=O)C3c4[nH]c5ccc(OCc6ccccc6)cc5c4C4CCC(C(C)C)CC4C3C2=O)cc1 (configuration not stated) turned out to be 109

The value of growth measured for the compound CCN(CC)CCCC(C)Nc1ccc2ccc(Cl)cc2n1 (configuration not stated) turned out to be 92.2

The value of growth measured for the compound COc1ccc(Cl)cc1C(=O)Nc1nc2ccc(Cl)cc2s1 turned out to be 53.2

The value of growth measured for the compound NC(=O)SCC(=O)Nc1ccc(S(N)(=O)=O)cc1 turned out to be 109

The value of growth measured for the compound Nc1ncnc2[nH]c(=O)[nH]c12 turned out to be 91.3

The value of growth measured for the compound CC(=O)N(C)c1ccc(Nc2ccc(Nc3ccc(N(C)C(C)=O)cc3)c3c2C(=O)c2ccccc2C3=O)cc1 turned out to be 73.5

The value of growth measured for the compound COc1cc(/C=N/NC(=O)c2ccccc2Nc2ccnc(C(F)(F)F)c2)ccc1O turned out to be 102

The value of growth measured for the compound O=C(CC(C(=O)c1ccccc1)N1CCOCC1)c1ccccc1 (configuration not stated) turned out to be 77.3

The value of growth measured for the compound Cc1ccc(-c2n[nH]c(=O)c3noc(-c4ccc(C)cc4)c23)cc1 turned out to be 32.2

The value of growth measured for the compound COc1cc(C(=O)N2CCN(c3ccccc3OC)CC2)c(N)cc1OCCCN1CCN(c2ccccc2OC)CC1 turned out to be 81.9

The value of growth measured for the compound COc1ccccc1CNCCCN1C(=O)c2ccc3c4c(ccc(c24)C1=O)C(=O)N(CCCN)C3=O turned out to be -4.19

* * *

# Tested on: EKVX NSCLC
# run.description: NCI-60 one-dose screen, 48 h (100 = growth as untreated, 0 = no growth, -100 = all killed)
# conditions.used: 10 µM
# Method: Growth inhibition of the EKVX human Non-Small Cell Lung tumor cell line is measured as a screen for anti-cancer activity. Cells are grown in 96 well plates and exposed to the test compound for 48 hours. Compounds are tested at a single concentration, which is 10^-5 M for most compounds. The reported endpoint is percent growth (GI% or GIPRCNT), where numbers from 0 - 100% represent growth inhibition, and numbers from -100% - 0 represent cell death. […]
Compounds without any hit were thinned out: in the full panel of roughly 83,000, 20% have a hit.
Please go through the items and note down their growth.
// return numeric value only (unit: %, not printed)

The value of growth measured for the compound COc1ccc2c(c1)C(=O)c1c-2c(OCCN(C)C)nc2ccccc12 turned out to be 44.7

The value of growth measured for the compound CCc1ccc2c(c1)N(CCO)C1=C(C(=O)OC1)C2c1cc(OC)c(OC)c(OC)c1 (centres undefined) turned out to be 29.9

The value of growth measured for the compound COc1cc(NC(=O)CSc2nc3ccccc3c(=O)n2CCc2ccccc2)cc(OC)c1OC turned out to be 65.3

The value of growth measured for the compound c1ccc2c(c1)oc1c3c(ccc12)NCCC3 turned out to be 59.5

* * *

# Test system: LOX IMVI melanoma
# run.description: NCI-60 one-dose screen, 48 h
# conditions.used: 10 µM
About 83,000 compounds went through this panel and 20% of them were active in at least one assay; those are over-represented in the sample as a whole. Calls of active or inactive are those of the source. The calls were made as follows: active = growth percent below 10; inactive = the rest.
Outcome (select one): label 1 = active, label 0 = inactive

Task: Could you check what this test reported for O=C(Nc1ccc(Cl)cc1)N1NC(c2ccc(Cl)cc2)C=C1c1ccccc1 (stereo not drawn) ?
Output: label 0

Task: Could you check what this test reported for COc1cccc(-c2cc(-c3cccc(NS(C)(=O)=O)c3)nc(N)c2C#N)c1O ?
Output: label 0

Task: Could you check what this test reported for COc1ccc(-c2nc(-c3nc4ccc(OC)cc4[nH]3)cc3c2[nH]c2ccccc23)cc1 ?
Output: label 0

Task: Could you check what this test reported for O=[N+]([O-])c1ccc(Oc2cccnc2)c([N+](=O)[O-])c1 ?
Output: label 0

Task: Could you check what this test reported for COc1cc(Cl)cc(-c2nn(-c3cccc(NC(=O)Nc4ccc(Cl)c(C(F)(F)F)c4)c3)cc2-c2ccncc2)c1 ?
Output: label 1

Task: Could you check what this test reported for CCN(CC)CCSCCN(CC)CC ?
Output: label 0

Task: Could you check what this test reported for O=C1N=NC2=C1c1c3ccccc3c(O)n1CC2 ?
Output: label 0

Task: Could you check what this test reported for CSc1nn(-c2ccccc2)c2ncnc(Oc3ccccc3)c12 ?
Output: label 0

Task: Could you check what this test reported for CCN(CC)CCC(=O)Nc1cccc2c1C(=O)c1c(c(O)c3ccccc3c1O)C2=O ?
Output: label 0

Task: Could you check what this test reported for COc1ccc(NC(=O)CSc2nc3ccccc3c(=O)n2CCc2ccccc2)cc1 ?
Output: label 0

Task: Could you check what this test reported for Cc1cc(C)c2c(n1)sc1c(Nc3ccc(Cl)cc3)ncnc12 ?
Output: label 1

Task: Could you check what this test reported for CSc1nc(=O)n(Cc2ccc(Cl)cc2)c(=O)[nH]1 ?
Output: label 0

Task: Could you check what this test reported for O=C(Nc1cccc(-n2cc(-c3ccncc3)c(-c3ccc(O)c(Cl)c3)n2)c1)Nc1cccc(C(F)(F)F)c1 ?
Output: label 1

Task: Could you check what this test reported for CN1CC[C@@H](c2c(O)cc(O)c3c(=O)cc(-c4ccccc4Cl)oc23)[C@@H](O)C1 ?
Output: label 1

Task: Could you check what this test reported for CCCCCCCCCCCCCCCC(=O)OC1[C@@H](OC(=O)CCCCCCCCCCCCCCC)[C@@H](C(=O)N[C@@H](CCCCN)C(=O)OC)O[C@H]1n1cnc2c(=O)[nH]c(NC(=O)C(C)C)nc21 (stereo partly drawn) ?
Output: label 0

Task: Could you check what this test reported for Cc1cc2ccccc2nc1-c1ccccc1F ?
Output: label 0

Task: Could you check what this test reported for CCOC(=O)c1ccc(NC(=O)Nc2ncc(Cl)cc2Cl)cc1 ?
Output: label 0

Task: Could you check what this test reported for Nc1cc2c(cc1Cl)-c1ccc([N+](=O)[O-])cc1/C2=N\O ?
Output: label 0

Task: Could you check what this test reported for O=C(O)CCCCSc1ncnc2nc[nH]c12 ?
Output: label 0

Task: Could you check what this test reported for COc1cc(-c2cc(/C=C/C(=O)c3ccc4c(c3)OCO4)[nH]n2)cc(OC)c1OC ?
Output: label 0

Task: Could you check what this test reported for O=S(=O)(Nc1ccccn1)c1ccc(N=Nc2ccc(O)c3ncccc23)cc1 ?
Output: label 0

Task: Could you check what this test reported for Cn1c([N+](=O)[O-])cnc1/C=C1\Oc2ccc(Cl)cc2C1=O ?
Output: label 1

Task: Could you check what this test reported for Cc1ccc(C(=O)N2C/C(=C/c3ccccc3)C(=O)/C(=C/c3ccccc3)C2)cc1 ?
Output: label 1

* * *

Please go through the items and note down their growth.
# Test system: UACC-257 melanoma
# run.description: NCI-60 one-dose screen, 48 h (100 = growth as untreated, 0 = no growth, -100 = all killed)
# conditions.used: 10 µM
The panel holds about 83,000 compounds, 20% with a hit somewhere; the sample as a whole holds those more often.
// return numeric value only (unit: %, not printed)

The value of growth measured for the compound COc1ccc(C2CC(c3ccc(N(C)C)cc3)=NN2c2ccc(S(N)(=O)=O)cc2)cc1 (configuration not stated) turned out to be 73.7

The value of growth measured for the compound CSc1nn(-c2ccccc2)c2ncnc(Oc3ccc(C)cc3)c12 turned out to be 93

The value of growth measured for the compound CCN(CC)CCN1CC(=O)Nc2cc(Cl)ccc21 turned out to be 102

The value of growth measured for the compound O=C(Nc1cccc(-n2cc(-c3ccncc3)c(-c3ccc(O)c(Cl)c3)n2)c1)c1ccc(Cl)c(Cl)c1 turned out to be 10.8

The value of growth measured for the compound COc1ccc2c(c1)O/C(=C\c1ccc([N+](=O)[O-])s1)C2=O turned out to be 64.4

The value of growth measured for the compound O=C(O)CCCCSc1ncnc2nc[nH]c12 turned out to be 99.6

The value of growth measured for the compound O=S(=O)(NCCNc1nccc(-c2c(-c3ccc(F)cc3)nc3sccn23)n1)c1ccc2ccccc2c1 turned out to be 71

The value of growth measured for the compound Nc1ccc2c(c1)Cc1cc(N)c(Br)cc1-2 turned out to be 109

The value of growth measured for the compound O=C(c1ccc(Cl)cc1Cl)N1CCOCC1 turned out to be 96.6

The value of growth measured for the compound N#CCCN1C/C(=C/c2ccccc2)C(=O)/C(=C/c2ccccc2)C1 turned out to be 56.2

The value of growth measured for the compound Cc1cc(=O)[nH]c(N/N=C/c2ccccc2O)n1 turned out to be 88

The value of growth measured for the compound N=c1nc(N)ncn1-c1ccccc1 turned out to be 97.1

The value of growth measured for the compound N#CCCN(NC(=O)OCc1ccccc1)C(=O)OCc1ccccc1 turned out to be 107

The value of growth measured for the compound Nc1nc(Nc2ccccc2)n[nH]1 turned out to be -7.13

The value of growth measured for the compound O=C(Nc1cccc(Cl)c1)Nc1nccs1 turned out to be -10.8

The value of growth measured for the compound COc1cc2nc(Nc3cccc(NC(C)=O)c3)nc(N)c2cc1OC turned out to be 98.3

The value of growth measured for the compound COc1ccc(NC(=O)CSc2nc3ccccc3c(=O)n2CCc2ccccc2)cc1 turned out to be 87.9

The value of growth measured for the compound Cc1ccc(C)c(C(O)(c2cc(C)ccc2C)C2(O)CCCCC2)c1 turned out to be 102

The value of growth measured for the compound COc1ccccc1CNCCCN1C(=O)c2ccc3c4c(ccc(c24)C1=O)C(=O)N(CCCN)C3=O turned out to be -91.9

The value of growth measured for the compound CC(C)=NNc1ncnc2c1ncn2C1OC(CO)C(O)C1O (configuration not stated) turned out to be 73.9

The value of growth measured for the compound C=C(NC(=O)C(=C)NC(=O)c1csc(C2=NC3c4csc(n4)C4NC(=O)c5csc(n5)C(C(C)(O)C(C)O)NC(=O)C5CSC(=N5)/C(=C/C)NC(=O)C(C(C)O)NC(=O)c5csc(n5)C3(CC2)NC(=O)C(C)NC(=O)C(=C)NC(=O)C(=C)NC(=O)C(C(C)C)NC2C=Cc3c(C(C)O)cc(nc3C2O)C(=O)OC4C)n1)C(N)=O (configuration not stated) turned out to be 24.2

The value of growth measured for the compound COC(=O)C1=NNC(=S)N(c2cc(C)[nH]n2)C(=O)C1 turned out to be 100

The value of growth measured for the compound COc1cc(Cl)cc(-c2nn(-c3cccc(NC(=O)Nc4ccc(Cl)c(Cl)c4)c3)cc2-c2ccncc2)c1 turned out to be -11.5

The value of growth measured for the compound CC(=O)C1CCC2C3CC(F)C4=CC(=O)CCC4(C)C3C(O)CC12C (configuration not stated) turned out to be 98.6

The value of growth measured for the compound O=C(Nc1ccncc1)C(=O)c1cn(S(=O)(=O)c2cccc(Cl)c2)c2ccccc12 turned out to be 78.1

The value of growth measured for the compound FC(F)(F)c1ccc2nc(-c3nc(-c4ccccc4)n4ccccc34)[nH]c2c1 turned out to be 81.7

The value of growth measured for the compound C=C(Cl)[C@@](Cl)(CBr)CC[C@@H](Br)C(C)(C)Cl turned out to be -66.7

The value of growth measured for the compound COc1ccc(Cl)cc1C(=O)Nc1nc2ccc(Cl)cc2s1 turned out to be 102

The value of growth measured for the compound COc1cc(-c2nc(Nc3nc4ccccc4s3)[nH]c(=O)c2C#N)cc(OC)c1O turned out to be 102

The value of growth measured for the compound Nc1nc(N)c2c(ccc3nccc32)[nH]1 turned out to be -9.73

The value of growth measured for the compound N=c1c2c(-c3ccccc3)c(-c3ccccc3)n(Cc3ccccc3)c2ncn1CCCO turned out to be -24.9

The value of growth measured for the compound CN(C)C=Nc1cc(Cl)ccc1Cl turned out to be 90.2
